Source listed as ChEMBL document CHEMBL5291721.

Target: Sodium-dependent dopamine transporter (Homo sapiens, UniProt Q01959)
Sequence (Q01959 whole entry): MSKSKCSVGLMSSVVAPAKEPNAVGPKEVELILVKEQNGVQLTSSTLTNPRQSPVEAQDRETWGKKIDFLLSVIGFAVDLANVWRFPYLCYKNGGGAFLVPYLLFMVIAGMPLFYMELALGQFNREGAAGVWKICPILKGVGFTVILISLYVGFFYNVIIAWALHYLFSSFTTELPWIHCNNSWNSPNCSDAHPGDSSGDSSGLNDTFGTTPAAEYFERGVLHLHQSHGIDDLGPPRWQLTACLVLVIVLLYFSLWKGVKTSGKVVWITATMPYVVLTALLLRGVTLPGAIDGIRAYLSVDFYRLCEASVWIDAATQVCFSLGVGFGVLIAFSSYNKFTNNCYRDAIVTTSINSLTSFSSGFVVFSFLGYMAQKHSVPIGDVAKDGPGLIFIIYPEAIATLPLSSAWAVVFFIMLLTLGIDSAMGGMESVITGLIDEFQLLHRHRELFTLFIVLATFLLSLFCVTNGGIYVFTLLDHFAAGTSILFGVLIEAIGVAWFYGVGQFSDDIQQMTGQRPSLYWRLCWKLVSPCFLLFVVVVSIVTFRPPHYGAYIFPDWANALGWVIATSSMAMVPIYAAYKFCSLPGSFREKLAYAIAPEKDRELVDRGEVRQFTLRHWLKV
In this section, each of the compounds is paired with its reported log10 of AC50.
property-measured: log10 of AC50 (log10 of the value in µM)

> print(dat)
                                   compound                       experimental.target  data.value
1  Nc1ccc(S(=O)(=O)c2cnc(N)s2)cc1 [THIAZOLSULFONE]  Sodium-dependent dopamine transporter (Homo sapiens, UniProt Q01959)        1.39
2  CCCCCNC(=N)N/N=C/c1c[nH]c2ccc(OC)cc12 [TEGASEROD]  Sodium-dependent dopamine transporter (Homo sapiens, UniProt Q01959)        0.27
3  CCCCOC(=O)C(=O)[C@H]1[C@H](C)C[C@H]2[C@@H]3C[C@H](F)C4=CC(=O)C=C[C@]4(C)[C@H]3[C@@H](O)C[C@@]21C [FLUOCORTIN BUTYL]  Sodium-dependent dopamine transporter (Homo sapiens, UniProt Q01959)        1.43
4  CO[C@]12C[C@@H](COC(=O)c3cncc(Br)c3)CN(C)[C@@H]1Cc1cn(C)c3cccc2c13 [NICERGOLINE]  Sodium-dependent dopamine transporter (Homo sapiens, UniProt Q01959)        1.05
5     Clc1cc(Cl)c(OCC#CI)cc1Cl [HALOPROGIN]  Sodium-dependent dopamine transporter (Homo sapiens, UniProt Q01959)        0.81

----------
Here's what we have: AC50 numbers for Motilin receptor (Homo sapiens, UniProt O43193).

molecule	AC50
C#C[C@]1(O)CC[C@H]2[C@@H]3CCC4=Cc5oncc5C[C@]4(C)[C@H]3CC[C@@]21C [DANAZOL]	> 10 µM
NCC(CC(=O)O)c1ccc(Cl)cc1 (stereo not drawn) [BACLOFEN]	> 30 µM
COc1cc2c(N)nc(N3CCN(C(=O)OCC(C)(C)O)CC3)nc2c(OC)c1OC [TRIMAZOSIN]	> 30 µM
CN1C(=O)C(O)N=C(c2ccccc2)c2cc(Cl)ccc21 (stereo not drawn) [TEMAZEPAM]	> 10 µM
CCOc1ccccc1OCC1CNCCO1 (stereo not drawn) [VILOXAZINE]	> 10 µM
CN(C)CCC(c1ccc(Cl)cc1)c1ccccn1 (stereo not drawn) [CHLORPHENIRAMINE]	> 10 µM
COC(=O)[C@H]1[C@H]2C[C@@H]3c4[nH]c5cc(OC)ccc5c4CCN3C[C@H]2C[C@@H](OC(=O)/C=C/c2cc(OC)c(OC)c(OC)c2)[C@@H]1OC [RESCINNAMINE]	> 10 µM
OC(CNCC(O)C1CCc2cc(F)ccc2O1)C1CCc2cc(F)ccc2O1 (stereo not drawn) [NEBIVOLOL]	21 µM
O=[N+]([O-])c1cn2c(n1)OC[C@@H](OCc1ccc(OC(F)(F)F)cc1)C2 [PRETOMANID]	> 10 µM
C[C@H](CSC(=O)c1ccccc1)C(=O)N1C[C@@H](Sc2ccccc2)C[C@H]1C(=O)O [ZOFENOPRIL]	> 10 µM
COC(=O)C1=C(C)NC(C)=C(C(=O)OC2CCCN(Cc3ccccc3)C2)C1c1cccc([N+](=O)[O-])c1 (stereo not drawn) [BENIDIPINE]	3.5 µM
CCCC(C)C1(CC)C(=O)NC(=O)NC1=O (stereo not drawn) [PENTOBARBITAL]	> 10 µM
COc1cc2nc(N3CCN(C(=O)c4ccco4)CC3)nc(N)c2cc1OC [PRAZOSIN]	> 10 µM

----------
Recorded AC50 by entry
Molecular target: Adenosine receptor A3 (Homo sapiens); note: assay procedure not described here
Sequence (P0DMS8 whole entry): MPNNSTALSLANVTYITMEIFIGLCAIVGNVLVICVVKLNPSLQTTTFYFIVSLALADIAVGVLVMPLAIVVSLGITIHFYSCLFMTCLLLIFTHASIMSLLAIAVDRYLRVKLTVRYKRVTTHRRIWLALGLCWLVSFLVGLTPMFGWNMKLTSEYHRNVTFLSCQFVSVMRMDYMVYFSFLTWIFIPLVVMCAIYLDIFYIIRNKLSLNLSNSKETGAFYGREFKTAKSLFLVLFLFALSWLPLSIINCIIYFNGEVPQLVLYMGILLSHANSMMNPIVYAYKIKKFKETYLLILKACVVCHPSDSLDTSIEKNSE

compound	AC50
O=C1C(O)=C([C@H]2CC[C@H](c3ccc(Cl)cc3)CC2)C(=O)c2ccccc21	> 30 µM
CCCCCNC(=N)N/N=C/c1c[nH]c2ccc(OC)cc12	15.3 µM
CCCC(C)C1(CC)C(=O)NC(=O)NC1=O (configuration not stated)	> 10 µM
COc1cc2nc(N(C)CCCNC(=O)C3CCCO3)nc(N)c2cc1OC (configuration not stated)	> 30 µM
CO[C@@H]1[C@@H](O[C@@H]2O[C@H](C)[C@@H](O[C@H]3C[C@@](C)(O)[C@@H](OC(=O)CC(C)C)[C@H](C)O3)[C@H](N(C)C)[C@H]2O)[C@@H](CC=O)C[C@@H](C)[C@@H](O)/C=C/C=C/C[C@@H](C)OC(=O)C[C@H]1OC(C)=O	> 10 µM
CC(Oc1c(Cl)cccc1Cl)C1=NCCN1 (configuration not stated)	> 30 µM
CN1C(C(=O)Nc2ccccn2)=C(O)c2sc(Cl)cc2S1(=O)=O	> 30 µM
CCCC(=O)O[C@]1(C(=O)CO)CC[C@H]2[C@@H]3CCC4=CC(=O)CC[C@]4(C)[C@H]3[C@@H](O)C[C@@]21C [HYDROCORTISONE BUTYRATE]	> 10 µM
CCOc1ccccc1OCC1CNCCO1 (configuration not stated)	> 30 µM
O=C(O)C[C@H](O)C[C@H](O)/C=C/c1c(C2CC2)nc2ccccc2c1-c1ccc(F)cc1	> 30 µM
Cc1nc([N+](=O)[O-])cn1-c1ccc([N+](=O)[O-])cc1	> 30 µM
COc1ccc(CCNCC(O)COc2cccc(C)c2)cc1OC (configuration not stated)	> 10 µM

----------
Below, each entry is listed alongside its reported AC50.
Biological target: Androgen receptor (Rattus norvegicus); note: assay procedure not described here
Sequence (P15207 whole entry S389L): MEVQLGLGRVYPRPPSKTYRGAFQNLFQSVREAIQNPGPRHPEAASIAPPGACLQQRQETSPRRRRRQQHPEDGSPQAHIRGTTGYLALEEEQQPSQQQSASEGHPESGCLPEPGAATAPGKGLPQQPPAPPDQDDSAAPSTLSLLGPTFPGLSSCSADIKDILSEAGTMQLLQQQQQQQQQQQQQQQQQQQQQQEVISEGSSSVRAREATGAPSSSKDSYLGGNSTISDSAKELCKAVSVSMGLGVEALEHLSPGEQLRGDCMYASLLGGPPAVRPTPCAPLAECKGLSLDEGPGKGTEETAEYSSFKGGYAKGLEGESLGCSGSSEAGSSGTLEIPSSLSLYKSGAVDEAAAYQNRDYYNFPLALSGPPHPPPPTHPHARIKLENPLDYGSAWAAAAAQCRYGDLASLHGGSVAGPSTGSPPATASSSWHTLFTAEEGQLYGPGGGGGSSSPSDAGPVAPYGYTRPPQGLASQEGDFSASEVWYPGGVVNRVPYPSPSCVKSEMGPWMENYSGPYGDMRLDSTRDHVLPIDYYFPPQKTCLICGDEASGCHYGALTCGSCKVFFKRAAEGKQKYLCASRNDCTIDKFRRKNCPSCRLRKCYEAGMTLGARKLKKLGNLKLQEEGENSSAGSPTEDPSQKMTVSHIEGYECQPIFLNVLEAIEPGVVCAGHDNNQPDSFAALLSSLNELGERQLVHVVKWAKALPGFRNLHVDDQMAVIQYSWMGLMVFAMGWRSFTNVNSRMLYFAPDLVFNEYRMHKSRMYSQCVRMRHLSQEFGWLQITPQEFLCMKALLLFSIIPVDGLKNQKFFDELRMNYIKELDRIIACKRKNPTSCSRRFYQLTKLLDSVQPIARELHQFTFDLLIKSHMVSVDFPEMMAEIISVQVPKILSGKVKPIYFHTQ
property-measured: AC50

> print(dat)
                                   compound                    experimental.target  property.measured  data.value
1  COc1cccc(C2(O)CCCCC2CN(C)C)c1 (stereo not drawn)  Androgen receptor (Rattus norvegicus)               AC50     > 30 µM
2  CCOc1ccc(Cc2cc([C@@H]3O[C@H](CO)[C@@H](O)[C@H](O)[C@H]3O)ccc2Cl)cc1  Androgen receptor (Rattus norvegicus)               AC50     > 30 µM
3  COc1ccc(CCNCC(O)COc2cccc(C)c2)cc1OC (stereo not drawn)  Androgen receptor (Rattus norvegicus)               AC50     > 10 µM

----------
Target or system Sodium-dependent dopamine transporter (Homo sapiens): recorded AC50 listed per item.
property-measured: AC50

molecule	data-value
Clc1ccc2nsnc2c1NC1=NCCN1	> 10 µM
CC(CC(c1ccccc1)c1ccccc1)NC(C)(C)C (configuration not stated)	20 µM
Cc1ccc(S(=O)(=O)NC(=O)NN2CC3CCCC3C2)cc1 (configuration not stated) [GLICLAZIDE]	> 10 µM
CO[C@@H]1[C@@H](O[C@@H]2O[C@H](C)[C@@H](O[C@H]3C[C@@](C)(O)[C@@H](OC(=O)CC(C)C)[C@H](C)O3)[C@H](N(C)C)[C@H]2O)[C@@H](CC=O)C[C@@H](C)[C@@H](O)/C=C/C=C/C[C@@H](C)OC(=O)C[C@H]1OC(C)=O	> 10 µM
COc1ccc(CCNCC(O)COc2cccc(C)c2)cc1OC (configuration not stated)	16.2 µM
CC(C)(C)C(=O)Oc1ccc(S(=O)(=O)Nc2ccccc2C(=O)NCC(=O)O)cc1	> 30 µM
CC(C[N+](C)(C)C)OC(N)=O (configuration not stated)	> 10 µM
CCCSc1ccc2nc(NC(=O)OC)[nH]c2c1	> 30 µM
N#Cc1ccc([C@H]2CCc3cncn32)c(F)c1	> 10 µM
Cc1cc(C(C)(C)C)c(O)c(C)c1CC1=NCCN1	> 30 µM
COc1ccc2c3c1O[C@H]1C(=O)CC[C@@]4(O)[C@@H](C2)N(C)CC[C@]314	> 30 µM
Cc1cn([C@H]2C[C@H](N=[N+]=[N-])[C@@H](CO)O2)c(=O)[nH]c1=O	> 10 µM
Nc1ccn([C@H]2CC[C@@H](CO)O2)c(=O)n1	> 10 µM
CC(C)=CCC/C(C)=C/C=C/C(C)=C/C=C/C(C)=C/C=C/C=C(C)/C=C/C=C(C)/C=C/C=C(\C)CCC=C(C)C	> 30 µM
CN1C(C(=O)Nc2ccccn2)=C(O)c2sc(Cl)cc2S1(=O)=O	> 30 µM
C#C[C@]1(O)CC[C@H]2[C@@H]3CCC4=Cc5oncc5C[C@]4(C)[C@H]3CC[C@@]21C	> 10 µM
CN1C(=O)C(O)N=C(c2ccccc2Cl)c2cc(Cl)ccc21 (configuration not stated)	> 30 µM
C[C@]1(O)CC[C@H]2[C@@H]3CCC4=CC(=O)CC[C@]4(C)[C@@]3(F)[C@@H](O)C[C@@]21C	> 10 µM
CCCCCCOc1ccccc1C(N)=O [EXALAMIDE]	14 µM
C[C@](N)(Cc1ccc(O)c(O)c1)C(=O)O	> 10 µM
C[C@@H](O)[C@H]1C(=O)N2C(C(=O)O)=C(S[C@@H]3CN[C@H](C(=O)N(C)C)C3)[C@H](C)[C@H]12	> 300 µM
CC(=O)Nc1ccc(O)cc1	> 30 µM
CC(Oc1c(Cl)cccc1Cl)C1=NCCN1 (configuration not stated)	> 30 µM
CC[C@H]1CN2CCc3cc(OC)c(OC)cc3[C@@H]2C[C@@H]1C[C@H]1NCCc2cc(OC)c(OC)cc21	> 30 µM
COc1ccccc1OCC(O)CN1CCN(CC(=O)Nc2c(C)cccc2C)CC1 (configuration not stated)	> 30 µM
CCCC(=O)O[C@]1(C(=O)CO)CC[C@H]2[C@@H]3CCC4=CC(=O)CC[C@]4(C)[C@H]3[C@@H](O)C[C@@]21C [HYDROCORTISONE BUTYRATE]	> 10 µM
CN(C)CCC(c1ccc(Cl)cc1)c1ccccn1 (configuration not stated)	1.46 µM
Cc1cc(O)c(C(=O)N[C@@H](C(=O)N[C@@H]2C(=O)N3C(C(=O)O)=C(CSc4nnnn4C)CS[C@H]23)c2ccc(O)cc2)cn1 [CEFPIRAMIDE]	> 30 µM
NCC(CC(=O)O)c1ccc(Cl)cc1 (configuration not stated)	> 30 µM
O=C(O)CCCCCCNC1c2ccccc2CCc2ccccc21	1.5 µM
COc1ccc(-c2ccc3cc(C(=O)O)ccc3c2)cc1C12CC3CC(CC(C3)C1)C2	> 30 µM
CN1CCN(CC/C=C2/c3ccccc3Sc3ccc(S(=O)(=O)N(C)C)cc32)CC1	6.26 µM
